ASSAY_SYSTEM: Peroxisome proliferator-activated receptor delta (Homo sapiens)
TEST: qHTS assay for small molecule agonists of peroxisome proliferator-activated receptor delta signaling (AID 588534);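 note: 0% = DMSO basal wells and 100% = positive control agonist at 10 µM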
COND: HEK293T PPARdelta-UAS-bla, beta-lactamase ratio, 18 h; series mostly up to 76.7 µM
Results filed as inconclusive are left out. Calls of active or inactive are those of the source. Calls come from the whole dose curve.
PARAMETER_MEASURED: outcome

These recorded examples may help you get a feel for the data.
CCCCC : inactive
O=C(O)CCCCCCCCCCC(=O)O : inactive
CCCCOCCOCCOCCCC : inactive
Nc1cc(Cl)nc(C(=O)O)c1Cl : inactive
Cc1cccc([N+](=O)[O-])c1C : inactive

For the molecule "CN1COCN(Cc2cnc(Cl)s2)/C1=N\[N+](=O)[O-]" , what outcome is on record? inactive

Next molecule up: "CC(C)N(C)C" inactive

Next molecule up: "CC#N" inactive

Next molecule up: O=C1OC(O)C(C(Cl)Cl)=C1Cl (configuration not stated) inactive

Next molecule up: "O=C1OC(=O)c2c(Cl)c(Cl)c(Cl)c(Cl)c21" inactive

Next molecule up: "Nc1nc(N)nc(-c2ccccc2)n1" inactive

Next molecule up: "O=C(Cl)c1cccc(C(=O)Cl)c1" inactive

====

TEST: qHTS assay for small molecule activators of the p53 signaling pathway (AID 651743); note: % of control where 0% means no effect
COND: HCT-116 p53RE-bla, beta-lactamase FRET ratio, 16 h; stronger effect = higher value
Inconclusive results are not listed.
Reported activation values for a set of compounds
# value in %; strip the unit string

For the compound "CC(C)N(C(=O)COc1nnc(C(F)(F)F)s1)c1ccc(F)cc1" , what activation is on record? 0.0644

Next compound up: "CCC[CH2][Sn]([CH2]CCC)([O]C(C)=O)[O]C(C)=O" 4.26

Next compound up: "CC(C)N(C(=O)SCC(Cl)=C(Cl)Cl)C(C)C" -5.02

====

ASSAY_SYSTEM: Bile acid receptor (Homo sapiens)
TEST: qHTS assay for small molecule agonists of farnesoid X receptor signaling (AID 588527);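 note: 0% = vehicle basal and 100% = reference agonist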
COND: HEK293T FXR-UAS-bla, beta-lactamase ratio, 16 h; stronger effect = higher value
Records with an inconclusive call do not appear.
PARAMETER_MEASURED: activation (%)
# value in %; strip the unit string

These recorded examples may help you get a feel for the data.
COCc1cnc(C2=NC(C)(C(C)C)C(=O)N2)c(C(=O)O)c1 (stereo unspecified) : -0.497
CCOC(=O)C(C)Oc1ccc(Oc2cnc3cc(Cl)ccc3n2)cc1 (stereo unspecified) : -3.91
Cc1ccc(C(=O)c2ccccc2)cc1 : -0.352
OCC(CO)(CO)COCC(CO)(CO)CO : -6.39
CCCCCCCCn1sccc1=O : 6.4
C=C(C)C(=O)OCCCCCCCCCC : -1.22
CCCCCCCCCCCC[N+](C)(C)C : 0.368
CCCCC(CC)COS(=O)(=O)O (stereo unspecified) : 1.45

For the molecule "O=C(O)CN(CCO)CCN(CC(=O)O)CC(=O)O" , what activation is on record? -2.73

Next molecule up: "Cc1ccc(C)c(O)c1" 2.07

Next molecule up: "Cc1ccc(C(C)(C)C)c(O)c1" -1.53

Next molecule up: "Cc1ccn2nc(S(=O)(=O)Nc3c(F)cccc3F)nc2n1" -2.19

Next molecule up: "C=C(C)C(=O)OCCCCCC" -1.11

Next molecule up: "Cc1ccc(N=Nc2c(O)ccc3ccccc23)c([N+](=O)[O-])c1" -0.458

Next molecule up: CCOP(=O)(SC(C)CC)SC(C)CC (stereo unspecified) -3.29

Next molecule up: O=C(NC(=O)c1c(F)cccc1F)Nc1cc(Cl)c(OC(F)(F)C(F)C(F)(F)F)c(Cl)c1F (stereo unspecified) 3.38

====

TEST: AP1 Signaling Pathway (AID 357);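 note: ME-180 reporter cells stimulated with EGF at its EC50 level; % is set by controls: 0 for no effect and ±100 for the full control effect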
COND: ME-180 (cervical carcinoma) AP-1-bla reporter, EGF-induced, beta-lactamase ratio, 5 h; at 17.2 µM (top of the series) unless noted
Results filed as inconclusive are left out. Activity calls are given as the source filed them. The call rests on the fitted dose curve; in most records, active means well fitted curve in either direction with a large enough effect (not every such curve was filed as active); inconclusive means small, poorly fitted or top-dose-only effect, or another doubt; inactive means flat fitted curve, though single readings scatter.
Reported activity change, negative = inhibition values for a set of compounds

Cc1c(N=Cc2c(O)n(CCc3ccccc3)c(=O)[nH]c2=O)c(=O)n(-c2ccccc2)n1C : -11.1% (inactive)

For the compound "NC(=O)c1ccc(OC[C@H](O)CN2CC=C(c3ccc(F)cc3)CC2)cc1" , what activity change, negative = inhibition is on record? 18.4% [at 38 µM] (inactive)

====

Test system: CP237
TEST: qHTS profiling for inhibitors of Plasmodium falciparum proliferation (AID 504749); note: nearly all actives have a fitted effect of over 60% in size
COND: P. falciparum in erythrocytes, SYBR Green DNA, 72 h; series mostly up to 28.7 µM
Records with an inconclusive call do not appear. Calls of active or inactive are those of the source. Calls come from the whole dose curve; as a rule, active = well fitted inhibition curve with a large enough effect; inconclusive = small, poorly fitted or top-dose-only effect; inactive = flat fitted curve, though single readings scatter.
// allowed return values: active, inactive

These recorded examples may help you get a feel for the data.
COc1ccc2c3c1O[C@H]1[C@@H](O)C=C[C@H]4C(C2)NCCC341 (stereo partly drawn) : inactive
CCOC(=O)/C=C(C)/C=C/CC(C)CCCC(C)C (stereo not drawn) : inactive
O=[N+]([O-])OC1CO[C@H]2C(O[N+](=O)[O-])COC12 (stereo partly drawn) : inactive

Test call, this compound: "C[C@H](N)Cc1ccccc1" inactive

Next compound up: C#CC1(O)C=CC2C3CCC4=CC(=O)CCC4C3CCC21CC (stereo not drawn) active

Next compound up: "C#CCN1CC(=O)N(COC(=O)[C@@H]2[C@@H](C=C(C)C)C2(C)C)C1=O" inactive

Next compound up: Cc1cc(C)cc(C(=O)OC2CC3CCC(C2)N3C)c1 (stereo not drawn) inactive

Next compound up: CC(CO)NC(=O)C1C=C2c3cccc4[nH]cc(c34)CC2N(C)C1 (stereo not drawn) inactive

Next compound up: CCCCCC(O)C1C(=O)OC(C)C(O)\C=C/C=C\C=C/C=C\C=C(\C)C(O)C(O)C(O)CC(O)CC(O)CC(O)CC(O)CC1O (stereo not drawn) inactive

Next compound up: CN1C2CCC1C(C(=O)O)C(OC(=O)c1ccccc1)C2 (stereo not drawn) inactive

Next compound up: OC[C@@H](O)[C@H]1O[C@@H]2OC(C(Cl)(Cl)Cl)O[C@H]2[C@H]1O (stereo partly drawn) inactive

Next compound up: CC12CCC3C4CCC(=O)C(O)=C4CCC3C1CCC2OC(=O)CCC1CCCC1 (stereo not drawn) inactive

Next compound up: C[C@]12CCC3C(CCC4=C(Cl)C(=O)CC[C@@]43C)C1CCC2O (stereo partly drawn) inactive

====

Reported Potency values for a set of compounds
ASSAY_SYSTEM: Cytochrome P450 1A2 (Homo sapiens)
TEST: p450-cyp1a2 (AID 410); note: potency is the fitted concentration of half-maximal effect
COND: recombinant CYP1A2, luciferin-ME demethylation, luminescence; series mostly up to 57 µM
Results filed as inconclusive are left out. The source made the active and inactive calls. The call rests on the fitted dose curve.

These recorded examples may help you get a feel for the data.
C[C@]12Cc3cn4c(nc3C=C1CC[C@H]1[C@@H]2CC[C@@]2(C)[C@H]1CC[C@@]2(O)C#N)nc1ccccc14 : 15.8 µM (active)
CCCc1cc2c(n1Cc1cccc(Cl)c1)C(C)C1CN(C(=O)c3ccccc3)C(C)(C(=O)OC)C21 (stereo unspecified) : 31.6 µM (active)

For the compound "C[C@@H](CO)NC(=O)[C@H]1C=C2c3cccc4[nH]cc(c34)C[C@H]2N(C)C1" , what Potency is on record? 31.6 µM (active)

Next compound up: "COC(=O)[C@@]1(Cc2ccc(F)cc2)[C@H]2c3cc(C(=O)N(C)C)[nH]c3C[C@H]2CN1C(=O)c1ccccc1" 20 µM (active)

Next compound up: "COc1cc2c(cc1O)-c1c(O)c(OC)cc3c1[C@H](C2)N(C)CC3" 3.16 µM (active)

====

Tested on: CP262
TEST: qHTS profiling for inhibitors of Plasmodium falciparum proliferation (AID 504749); note: nearly all actives have a fitted effect of over 60% in size
COND: P. falciparum in erythrocytes, SYBR Green DNA, 72 h; series mostly up to 28.7 µM
Records with an inconclusive call do not appear. Activity calls are given as the source filed them. Calls come from the whole dose curve; as a rule, active = well fitted inhibition curve with a large enough effect; inconclusive = small, poorly fitted or top-dose-only effect; inactive = flat fitted curve, though single readings scatter.
// allowed return values: true (1) for active, false (0) for inactive

C=C1CC2C(CC[C@]3(C)C(=O)CCC23)[C@]2(C)C=CC(=O)C=C12 (stereo partly drawn) : false (0)

Test call, this molecule: CC(CO)NC(=O)C1C=C2c3cccc4[nH]cc(c34)CC2N(C)C1 (stereo not drawn) false (0)

Next molecule up: CCCN1CCCC2Cc3nc(N)ncc3CC21 (stereo not drawn) false (0)

Next molecule up: C=CC[N+]1(C)CCC23c4c5ccc(O)c4O[C@H]2C(=O)CC[C@@]3(O)C1C5 (stereo partly drawn) false (0)

Next molecule up: CC(=O)O[C@H]1C[C@H](O[C@H]2[C@@H](O)CC(O[C@H]3[C@@H](O)C[C@H](O[C@H]4CC[C@@]5(C)[C@H](CC[C@@H]6[C@@H]5CC[C@]5(C)[C@@H](C7=CC(=O)OC7)CC[C@]65O)C4)O[C@@H]3C)O[C@@H]2C)O[C@H](C)[C@H]1O[C@@H]1O[C@H](CO)[C@@H](O)[C@H](O)[C@H]1O (stereo partly drawn) false (0)

Next molecule up: "C=C1Nc2ccccc2C(=O)N1c1ccccc1C" false (0)

Next molecule up: CC(C)CCC(=O)OC1CCC2C3CCC4=CC(=O)CC[C@]4(C)C3CC[C@]12C (stereo partly drawn) false (0)

Next molecule up: CN(C)C1C(=O)C(C(N)=O)C(=O)C2(O)C(=O)C3C(=O)c4c(O)cccc4C(C)(O)C3C(O)C12 (stereo not drawn) false (0)

Next molecule up: CC1OC(O[C@H]2C[C@@H](O)[C@]3(CO)[C@@H]4C(CC[C@]3(O)C2)[C@@]2(O)CC[C@H](C3=CC(=O)OC3)[C@@]2(C)C[C@H]4O)C(O)C(O)C1O (stereo partly drawn) false (0)

Next molecule up: CCCCCc1cc(O)c2c(c1)OC(C)(C)C1CC=C(C)CC21 (stereo not drawn) true (1)

Next molecule up: C[C@]12CC[C@H]3[C@@H](CC[C@@]45O[C@@H]4C(=O)C(C#N)C[C@]35C)[C@@H]1CC[C@@H]2O (stereo partly drawn) false (0)

Next molecule up: "C#CCN1CC(=O)N(COC(=O)[C@@H]2[C@@H](C=C(C)C)C2(C)C)C1=O" false (0)

Next molecule up: CCOC(=O)/C=C(C)/C=C/CC(C)CCCC(C)C (stereo not drawn) false (0)

Measured values drawn from PubChem BioAssay (NCATS) for this set.
